SUBJECT_OF_TEST: T1, PUF4 RNA-binding domain (Saccharomyces cerevisiae, UniProt P25339 537-888)
T1 sequence: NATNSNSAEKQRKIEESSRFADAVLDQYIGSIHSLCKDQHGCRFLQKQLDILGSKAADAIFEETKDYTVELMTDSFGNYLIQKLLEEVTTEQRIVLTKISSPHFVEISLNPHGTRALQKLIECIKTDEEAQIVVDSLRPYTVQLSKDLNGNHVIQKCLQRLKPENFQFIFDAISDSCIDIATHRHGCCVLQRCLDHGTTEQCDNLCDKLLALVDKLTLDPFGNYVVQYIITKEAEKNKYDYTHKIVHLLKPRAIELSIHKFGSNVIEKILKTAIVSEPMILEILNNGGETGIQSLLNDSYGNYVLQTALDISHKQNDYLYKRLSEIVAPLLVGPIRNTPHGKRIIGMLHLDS
TEST_SUMMARY: Mg; RNA-MaP; 20 mM Na-HEPES pH 7.4, 30 mM KOAc, 0.75 mM MgCl2, 0.1% Tween-20, 5% glycerol, 0.1 mg/mL BSA, 2 mM DTT; 25 C; 0.0125-409.6 nM protein
STATED_CONDITIONS: tags: N-His6-TEV cleaved; C-SNAP kept, Cy3B-labelled; label: tethered on chip by stalled RNA polymerase
VALUE_TYPE: Kd (nM)
Kindly answer with a numeric value in nM, unit omitted.

BINDER	UNITS_TEXT	MEASURED_RESULT
Ic_S4_P5E.1_K5.1_C5.1_H5.1_A5.1_[T6C]_F5.1_[T8C]_[T9A]_[A10T]_T5.1 (ssRNA) RNA: UUUGACAACUGAUCGUUCUUUCUUGUAUCACAUUUCUUUCUCGAUCAGUUGUCUUU	nM	183
UCUCUUUGUACUUCUAUCUCUU (ssRNA) [Ic_S1_P5E.1_K5.1_C5.1_H5.1_A5.1_[T5C]_[A7T]_F5.1_[T8C]_T5.1]	nM	7.77
UCUCUUGGUAUAUUUUCUCUU (ssRNA) [Ib_S1_P4E.1_K4.1_C4.1_H4.1_[T1G]_A4.1_F4.1_[A9T]_T4.1]	nM	1210

Switching to the query record.
Incoming: Need Kd of Ic_S4_P5E.1_K5.1_C5.1_H5.1_A5.1_[T5G]_[A7G]_F5.1_[T8C]_[T9C]_[A10T]_T5.1 (ssRNA) RNA: UUUGACAACUGAUCGUUCUUUCUUGUAGUGCCUUUCUUUCUCGAUCAGUUGUCUUU , thanks.
Outgoing: 956
